B1: CPEB3 Ribozyme (parent)
chain: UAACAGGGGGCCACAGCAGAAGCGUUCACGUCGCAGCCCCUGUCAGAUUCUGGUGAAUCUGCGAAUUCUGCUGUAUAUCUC

- Variants of: B1
- assayName: self-cleavage, relative activity (ratio to wild type); higher = more cleavage; in vitro, sequencing
measuredQuantity: self-cleavage
No unit in the answer, only the number.

mutationCode	measuredQuantity	dataValue
G9U A35U	self-cleavage	0.14
A47G U76G	self-cleavage	1.16
A35G C62A	self-cleavage	0.52

INPUT: Recorded self-cleavage of U26C C29A , please.
OUTPUT: 0.18

INPUT: Recorded self-cleavage of A2U A3G , please.
OUTPUT: 0.99

INPUT: Recorded self-cleavage of G63U U72C , please.
OUTPUT: 1.2

The reported measurements were obtained from the RNAGym collection of RNA variant scans (doi:10.1093/nar/gkz1192).
